Data provenance: ChEMBL document CHEMBL5038667

tested on: HeLa; assay: Dark toxicity against human HeLa cells assessed as reduction in cell viability incubated for 16 hrs by CCK-8 assay; format: functional, cell-based
pIC50: −log10 of the molar value.
measured-property: pIC50

>>> reported_measurement("COc1ccc2c(c1)CCc1c(-c3ccccc3)c3n(c1-2)[B-](F)(F)[N+]1=C(c2ccc(OCC(=O)O)cc2)C(I)=C(c2ccccc2)C1=N3")
"< 4.30"
>>> reported_measurement("COc1ccc(C2=[N+]3C(=Nc4c(-c5ccccc5)c5c(n4[B-]3(F)F)-c3ccc(OCC(=O)O)cc3CC5)C(c3ccccc3)=C2I)cc1")
"< 4.30"
>>> reported_measurement("COc1ccc(C2=[N+]3C(=Nc4c(-c5ccccc5)c5c(n4[B-]3(F)F)-c3ccc(OCC(=O)N[C@@H](CC(=O)O)C(=O)O)cc3CC5)C(c3ccccc3)=C2I)cc1")
"< 3.60"
>>> reported_measurement("COc1ccc(C2=[N+]3C(=Nc4c(-c5ccccc5)cc(-c5ccc(OC)cc5)n4[B-]3(F)F)C(c3ccccc3)=C2I)cc1")
"< 4.30"
